Molecular target: M1 receptors (Rattus norvegicus)
Sequence (P08482 1-460): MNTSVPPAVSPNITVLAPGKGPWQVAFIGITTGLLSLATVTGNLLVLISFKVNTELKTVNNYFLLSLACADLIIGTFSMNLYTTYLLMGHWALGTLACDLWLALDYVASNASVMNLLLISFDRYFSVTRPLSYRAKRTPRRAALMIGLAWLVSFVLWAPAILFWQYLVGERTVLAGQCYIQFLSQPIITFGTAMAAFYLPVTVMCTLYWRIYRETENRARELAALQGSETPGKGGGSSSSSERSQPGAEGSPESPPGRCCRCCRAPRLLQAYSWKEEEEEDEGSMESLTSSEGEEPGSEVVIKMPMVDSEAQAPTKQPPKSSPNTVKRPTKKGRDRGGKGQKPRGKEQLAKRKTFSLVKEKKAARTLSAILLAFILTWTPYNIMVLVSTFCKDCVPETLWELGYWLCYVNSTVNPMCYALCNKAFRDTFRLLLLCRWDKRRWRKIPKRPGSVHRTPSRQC
Quick reference for Ki among some compounds

| compound | target.system | test.result |
| --- | --- | --- |
| CC[C@@H]1SC2(CCNCC2)NC1=O [AF292] | M1 receptors (Rattus norvegicus) | 1640 nM |

Could you now consider this next compound?
I am curious: what Ki value has been reported for CC[C@@H]1SC2(CCN(C)CC2)NC1=O [AF267B] ?
3740 nM

---

Assay: Metabolic stability, rat liver microsomes
Assay type: in vitro ADME
Settings: read-out: Metabolic Stability T1/2
Quick reference for half-life among some molecules
Response body: numeric value in h, unit text excluded.

| molecule | half-life [h] |
| --- | --- |
| CC[C@@H]1SC2(CCN(C)CC2)NC1=O [AF267B] | 1.47 |

Could you now consider this next molecule?
I am curious: what half-life value has been reported for `CC[C@@H]1SC2(CCNCC2)NC1=O` ?
1.53

---

Assay: in vivo
Conditions: male, rat, po, 2 mg/kg
property: Kp
API doc: respond with a numeric literal and nothing else, no unit.

I am curious: what Kp value has been reported for CC[C@@H]1SC2(CCN(C)CC2)NC1=O [AF267B] ?
2.43

---

System: C57BL/10SnJ (B10) mice
Test: Morris water maze in small hippocampus mice
Assay type: in vivo
Conditions: mouse, in vivo
property: Reversal test, escape latency

| compound | test.result |
| --- | --- |
| CCN(C)C(=O)Oc1cccc([C@H](C)N(C)C)c1 [rivastigmine, reference compound] | no significant effect |
| CN1CCCC1c1cccnc1 (stereo not shown) [nicotine, reference compound] | no significant effect |

---

Molecular target: M1 mAChR (Rattus norvegicus)
Construct: elsewhere rat pheochromocytoma cells
Sequence (P08482 1-460): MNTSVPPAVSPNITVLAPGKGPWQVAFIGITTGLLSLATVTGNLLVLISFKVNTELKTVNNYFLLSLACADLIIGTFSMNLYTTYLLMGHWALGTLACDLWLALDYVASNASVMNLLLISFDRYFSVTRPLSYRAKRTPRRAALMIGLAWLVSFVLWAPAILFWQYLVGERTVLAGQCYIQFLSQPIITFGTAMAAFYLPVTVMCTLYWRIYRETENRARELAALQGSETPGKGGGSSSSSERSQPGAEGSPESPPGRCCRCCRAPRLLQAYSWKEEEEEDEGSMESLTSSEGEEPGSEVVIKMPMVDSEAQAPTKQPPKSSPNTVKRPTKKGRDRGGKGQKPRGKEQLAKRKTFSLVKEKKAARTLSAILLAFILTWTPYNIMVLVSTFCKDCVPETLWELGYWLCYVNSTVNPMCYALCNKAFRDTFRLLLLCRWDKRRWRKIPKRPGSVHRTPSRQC
Experiment: α-APPs secretion in cell cultures stably transfected with the M1 mAChR
Quick reference for EC50 among some molecules
A complete answer gives the number followed by the unit.

| molecule | target.system | test.result |
| --- | --- | --- |
| CC[C@@H]1SC2(CCNCC2)NC1=O | M1 mAChR (Rattus norvegicus) | 3 µM |

I am curious: what EC50 value has been reported for CC[C@@H]1SC2(CCN(C)CC2)NC1=O [AF267B] ?
3 µM

---

Test: Pharmacokinetic study in dogs
Format: in vivo
Settings: beagle, dog, plasma, po; Dogs, 5 mg/kg
property: AUC(0-inf)

I am curious: what AUC(0-inf) value has been reported for `CC[C@@H]1SC2(CCNCC2)NC1=O` ?
4650 ng·h/mL

---

Test: in vivo
Conditions: mouse
property: MRT (h)
Response body: numeric value in h, unit text excluded.

I am curious: what MRT value has been reported for CC[C@@H]1SC2(CCN(C)CC2)NC1=O [AF267B] ?
2.13

---

Assay: Plasma levels of AF267B and AF292 in dogs after AF267B administration (toxicokinetic, LC-MS)
Assay type: in vivo, Beagle dogs
Details: male, beagle, dog, plasma, po; M(13w)
property: MRT at 13 weeks

| compound | MRT at 13 weeks |
| --- | --- |
| CC[C@@H]1SC2(CCN(C)CC2)NC1=O [AF267B] | 3 to 4.2 h |

Could you now consider this next compound?
I am curious: what MRT at 13 weeks value has been reported for `CC[C@@H]1SC2(CCNCC2)NC1=O` ?
5 to 7.8 h

---

Experiment: Pharmacokinetic study in dogs
Type: in vivo
Conditions: beagle, dog, plasma, po; Dogs., 1 mg/kg
property: Cmax (ng/mL)
Response body: numeric value in ng/mL, unit text excluded.

I am curious: what Cmax value has been reported for CC[C@@H]1SC2(CCN(C)CC2)NC1=O [AF267B] ?
257

---

Assay: Protein binding, human plasma
Assay type: in vitro ADME
Quick reference for fraction unbound at 10 μM among some compounds
API doc: respond with a numeric literal and nothing else, no unit.

| compound | test.result |
| --- | --- |
| CC[C@@H]1SC2(CCNCC2)NC1=O [AF292] | 0.65 |

Could you now consider this next compound?
I am curious: what fraction unbound at 10 μM value has been reported for CC[C@@H]1SC2(CCN(C)CC2)NC1=O [AF267B] ?
0.75

---

Assay: Ex vivo brain penetration in mice (GC and binding)
Details: mouse, in vivo, iv, T1/2, second phase, mice brain
property: half-life (min)
Response body: numeric value in min, unit text excluded.

I am curious: what half-life value has been reported for CC1=NCC2(CCN(C)CC2)S1 [AF150(S)] ?
53

---

Assay: Metabolic stability, dog liver microsomes
Format: in vitro ADME
Details: read-out: Metabolic Stability T1/2
Quick reference for half-life among some compounds

| compound | half-life |
| --- | --- |
| CC[C@@H]1SC2(CCN(C)CC2)NC1=O [AF267B] | > 1.67 h |

Could you now consider this next compound?
I am curious: what half-life value has been reported for CC[C@@H]1SC2(CCNCC2)NC1=O [AF292] ?
> 1.67 h

---

Molecular target: muscarinic receptor
Test: [3H]OXO-M competition binding
Settings: rat cortex
Quick reference for pKi among some compounds
Friendly reminder that pKi comes from taking -log10 of the concentration in mol/L.

| compound | test.result |
| --- | --- |
| CC[C@@H]1SC2(CCN(C)CC2)NC1=O [AF267B] | 5.79 |

Could you now consider this next compound?
I am curious: what pKi value has been reported for `CC[C@H]1SC2(CCNCC2)NC1=O` ?
5.18

---

Experiment: Plasma levels of AF267B and AF292 in dogs after AF267B administration (toxicokinetic, LC-MS)
Type: in vivo, Beagle dogs
Conditions: male, beagle, dog, plasma, po; M (1x)
property: MRT

| compound | test.result |
| --- | --- |
| CC[C@@H]1SC2(CCN(C)CC2)NC1=O [AF267B] | 3.8 to 5 h |

I am curious: what MRT value has been reported for CC[C@@H]1SC2(CCNCC2)NC1=O [AF292] ?
5 to 27.3 h

---

Quick reference for half-life among some molecules
Experiment: Metabolic stability, monkey liver microsomes
Type: in vitro ADME
Settings: read-out: Metabolic Stability T1/2
A complete answer gives the number followed by the unit.

| molecule | half-life |
| --- | --- |
| CC[C@@H]1SC2(CCN(C)CC2)NC1=O [AF267B] | 27 min |

I am curious: what half-life value has been reported for CC[C@@H]1SC2(CCNCC2)NC1=O [AF292] ?
74 min

---

Experiment: Pharmacokinetic study in dogs
Assay type: in vivo
Details: beagle, dog, plasma, po; Dogs., 1 mg/kg
property: Tmax

I am curious: what Tmax value has been reported for CC[C@@H]1SC2(CCN(C)CC2)NC1=O [AF267B] ?
34.8 to 45 min

---

Assay: Chronic oral toxicity up to 13 weeks, dog
Conditions: beagle, dog, in vivo, po
property: NOAEL

I am curious: what NOAEL value has been reported for CC[C@@H]1SC2(CCN(C)CC2)NC1=O [AF267B] ?
6 to 9 mg/kg/day

---

Assay: Plasma levels of AF267B and AF292 in dogs after AF267B administration (toxicokinetic, LC-MS)
Format: in vivo, Beagle dogs
Conditions: male, beagle, dog, plasma, po, 6 mg/kg, M(13w), AF267B 1.5, 3, 6 mg/kg p.o.
property: AUC(0-inf)

| molecule | test.result |
| --- | --- |
| CC[C@@H]1SC2(CCNCC2)NC1=O [AF292] | 1.61 to 4.17 µg·h/mL |

Could you now consider this next molecule?
I am curious: what AUC(0-inf) value has been reported for CC[C@@H]1SC2(CCN(C)CC2)NC1=O [AF267B] ?
1.04 to 4.47 µg·h/mL
